# System: Nucleic Acid
# EXPERIMENT_NOTES: Thermal denaturation in alternating poly(dA-dT)poly(dA-dT) homopolymer (AT)
# Assay type: nucleic-acid assay
// reported Tm for each item listed
Enter your answer as a number in °C; do not include the unit.

{"columns": ["COMPOUND_STRUCTURE", "Tm (°C)"],
 "data": [
  ["CNc1ccc2[nH]c(CCc3nc4cc(NC)ccc4[nH]3)nc2c1", 14.1]
]}

Challenge: Check the records and state Tm for `N=C(N)c1ccc2c(ccn2Cc2cccc(Cn3ccc4cc(C(=N)N)ccc43)c2)c1`
Response given: 9.2

Challenge: Check the records and state Tm for `CC[n+]1c(-c2ccccc2)c2cc(N)ccc2c2ccc(N)cc21`
Response given: 16.8

Challenge: Check the records and state Tm for `CC(C)NC(=N)c1ccc2[nH]c(/C=C/c3nc4cc(C(=N)NC(C)C)ccc4[nH]3)nc2c1`
Response given: 22.5

Challenge: Check the records and state Tm for `N=C(N)c1ccc2c(ccn2CCCCCn2ccc3cc(C(=N)N)ccc32)c1`
Response given: 12.9

Challenge: Check the records and state Tm for `Cn1cc(NC(=O)c2cc(NC(=O)CNC(=N)N)cn2C)cc1C(=O)NCCC(=N)N`
Response given: 35.1

Challenge: Check the records and state Tm for `c1cc2[nH]c(CCCCc3nc4cc(C5=NCCN5)ccc4[nH]3)nc2cc1C1=NCCN1`
Response given: 28.9

Challenge: Check the records and state Tm for `c1cc2[nH]c(CCCc3nc4cc(C5=NCCN5)ccc4[nH]3)nc2cc1C1=NCCN1`
Response given: 20.1

Challenge: Check the records and state Tm for `N=C(N)c1ccc2c(ccn2CCCCn2ccc3cc(C(=N)N)ccc32)c1`
Response given: 16.3

Challenge: Check the records and state Tm for `N=C(N)c1ccc2[nH]c(CCCCc3nc4cc(C(=N)N)ccc4[nH]3)nc2c1`
Response given: 31.3

* * *

// reported Ratio for each item listed
# Test system: Nucleic Acid
# EXPERIMENT_NOTES: Ratio between poly-dAdT and poly-dGdC binding
# Type: nucleic-acid assay
// return a plain number; no unit text

Challenge: Check the records and state Ratio for `CC(C)NC(=N)c1ccc2[nH]c(-c3ccc(-c4nc5cc(C(=N)NC(C)C)ccc5[nH]4)cc3)nc2c1`
Response given: 8

Challenge: Check the records and state Ratio for `C1=NCCCN1Cc1ccc2[nH]c(CCc3nc4cc(CN5C=NCCC5)ccc4[nH]3)nc2c1`
Response given: 18

Challenge: Check the records and state Ratio for `N=C(N)c1ccc(OCCCCCOc2ccc(C(=N)N)cc2)cc1`
Response given: 6

Challenge: Check the records and state Ratio for `c1cc2[nH]c(CCCc3nc4cc(C5=NCCN5)ccc4[nH]3)nc2cc1C1=NCCN1`
Response given: 6

Challenge: Check the records and state Ratio for `OC/C=N\c1ccc2[nH]c(CCc3nc4cc(/N=C/CO)ccc4[nH]3)nc2c1`
Response given: 3

Challenge: Check the records and state Ratio for `N=C(N)c1ccc2c(ccn2Cc2ccc(Cn3ccc4cc(C(=N)N)ccc43)cc2)c1`
Response given: 2.2

Challenge: Check the records and state Ratio for `N=C(N)c1ccc2c(ccn2CCCCCCn2ccc3cc(C(=N)N)ccc32)c1`
Response given: 2.3

Challenge: Check the records and state Ratio for `c1cc2[nH]c(CCCCc3nc4cc(C5=NCCN5)ccc4[nH]3)nc2cc1C1=NCCN1`
Response given: 6

Challenge: Check the records and state Ratio for `N=C(N)c1ccc2[nH]c(CCCc3nc4cc(C(=N)N)ccc4[nH]3)nc2c1`
Response given: 6
